FYI, the data here is from the supplement of paper PMC8728848.

A collection of binders and their measured glycan array binding signal (z-score)
Target desc: GalNAc(b1-3)Gal
Assay comment: glycan array binding signal (z-score within array); higher = stronger binding
Measurement parameters: glycan notation: IUPAC condensed, linker removed
Shown is part of a subset that was picked to be rich in the strongest signals.

Binder: UEA-I (Ulex europaeus), P22972 (protein) SDDLSFKFKNFSQNGKDLSFQGDASVIETGVLQLNKVGNNLPDETGGIARYIAPIHIWNCNTGEVASFITSFSFFMETSANPKAATDGLTFFLAPPDSPLRRAGGYFGLFEDTKDNDSSYQTVAVEFDTIGSPVNFDDPGFPHIGIDVNRVKSINAERWNKRYGLNNVANVEIIYEASSKTLTASLTYPSDQTSISVTSIVDLKEILPEWVSVGFSGGTYIGRQATHEVLNWYFTSNLIN
glycan array binding signal (z-score): -0.18

Binder: MGL2 (Mus musculus), Q8JZN1 (protein) MTMRYENFQNLEREEKNQEMRNGDKKGGMESPKFALIPSQSFLWRILSWTHLLLFSLGLSLLLLVVISVIGSQNSQLRRDLGTLRAILDNTTSKIKAEFQSLDSRADNFEKGISSLKVDVEDHRQELQAGRDLSQKVTSLESTLEKREQALKTDLSDLTDHVQQLETDLKALTCQLANLKNNGSEVACCPLHWTEHEGSCYWFSESEKSWPEADKYCRLENSHLVVVNSLEEQNFLQNRLANVLSWMGLTDQNGPWRWVDGTDFDKGFKNWRPLQPDNWHGHMLGGGEDCAHFSYDGRWNDDVCQRHYHWICETELGKASSAHSPQLIASVP
glycan array binding signal (z-score): 4.95

Binder: LSECtin (Homo sapiens), Q6UXB4 (protein) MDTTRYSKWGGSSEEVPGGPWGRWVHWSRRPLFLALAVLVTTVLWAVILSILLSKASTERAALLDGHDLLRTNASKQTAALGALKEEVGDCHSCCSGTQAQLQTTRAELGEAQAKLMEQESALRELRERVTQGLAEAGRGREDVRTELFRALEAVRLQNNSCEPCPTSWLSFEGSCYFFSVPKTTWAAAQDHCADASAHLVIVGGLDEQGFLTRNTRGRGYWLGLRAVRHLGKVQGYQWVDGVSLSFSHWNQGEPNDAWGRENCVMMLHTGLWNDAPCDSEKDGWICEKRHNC
glycan array binding signal (z-score): -0.182

# next binder below
What does the data say about its glycan array binding signal (z-score)? Entry: Cohesin-hDCIR (Homo sapiens) (protein) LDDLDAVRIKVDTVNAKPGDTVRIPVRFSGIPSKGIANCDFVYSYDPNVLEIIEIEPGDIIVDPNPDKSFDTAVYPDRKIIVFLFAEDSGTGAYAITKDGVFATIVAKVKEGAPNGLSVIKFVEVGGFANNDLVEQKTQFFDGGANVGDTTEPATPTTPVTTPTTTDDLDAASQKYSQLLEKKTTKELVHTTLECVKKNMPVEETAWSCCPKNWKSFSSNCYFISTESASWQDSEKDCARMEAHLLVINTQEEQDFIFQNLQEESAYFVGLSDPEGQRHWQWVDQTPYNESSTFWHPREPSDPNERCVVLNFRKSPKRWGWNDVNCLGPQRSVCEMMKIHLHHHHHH 3.75
